Documented viability, T/C across a set of molecules
# Tested on: LG0703-F948-PDC complex spheroid viability;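 note: spheroids exposed to agents for 7 days; 100% = DMSO vehicle wells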
# methodSummary: Anticancer human tumor LG0703-F948-PDC patient-derived lung adenocarcinoma cell line growth inhibition [RAS]
# cond: second compound 0.316 µM; first compound 0.0949 µM; hits give low values
Reply numerically in %, unit not repeated.

molecule | u | endpointValue
CC1(C)CCC(Nc2ncc(C(F)(F)F)c(-c3c[nH]c4c(P(C)(C)=O)c(C#N)ccc34)n2)CN1 (centres undefined) + C=CC(=O)N1CCN(c2nc(OCC3CCCN3C)nc3c(F)c(-c4nc(N)cc(C)c4C(F)(F)F)c(Cl)cc23)C(C)C1 | % | 58.8
CCc1c2c(nc3ccc(O)cc13)-c1cc3c(c(=O)n1C2)COC(=O)[C@]3(O)CC + C=CC(=O)N1CCN(c2nc(OCC3CCCN3C)nc3c(F)c(-c4nc(N)cc(C)c4C(F)(F)F)c(Cl)cc23)C(C)C1 | % | 34.4
CCc1c2c(nc3ccc(O)cc13)-c1cc3c(c(=O)n1C2)COC(=O)[C@]3(O)CC + C#Cc1c(F)ccc2cc(O)cc(-c3ncc4c(N5CC6CCC(C5)N6)nc(OCC56CCCN5CC(F)C6)nc4c3F)c12 | % | 41.4

Would you mind telling me what viability, T/C value was observed for CC1(C)CCC(Nc2ncc(C(F)(F)F)c(-c3c[nH]c4c(P(C)(C)=O)c(C#N)ccc34)n2)CN1 (centres undefined) + C#Cc1c(F)ccc2cc(O)cc(-c3ncc4c(N5CC6CCC(C5)N6)nc(OCC56CCCN5CC(F)C6)nc4c3F)c12 ?
66
